Items are presented alongside their recorded melting point.
measurementType: melting point

compound | testValue
O=C(Nc1ccccc1)ONC1=Nc2ccc(Cl)cc2C(c2ccccc2)=NC1 | 215 to 217 °C
COc1cc(F)ccc1-c1ccc(S(=O)(=O)N2c3ccccc3CC2C(=O)NCc2ccccc2N)cc1 (stereo not given) | 92 to 97 °C
OCc1cc(OCc2ccc(C(F)(F)F)cc2)ccn1 | 96 to 98 °C
COc1ccc(C(=O)CC(C)C)cc1OCCCO | 38 to 40 °C
Cc1ncc(CNC(=O)c2sc(-n3cnn(Cc4ccc(F)cc4)c3=O)nc2C)s1 | 176 to 177 °C
NCC1COc2cc(Cl)cc(-c3ccccc3Cl)c2N1 (stereo not given) | 108 °C
COc1cc(Nc2ccc(CCCc3ccc(Cl)c(Cl)c3)cc2)c(C(=O)O)cc1[N+](=O)[O-] | 200 to 201 °C
Nc1ncnc2c1nnn2[C@@H]1C[C@H](CO)[C@@H](O)[C@@H]1F | 214 to 216 °C
N#Cc1ccccc1NC(=O)c1ccc(-n2nc(C(F)(F)F)cc2C(F)(F)F)cc1 | 203 to 205 °C
O=C(O)c1cn(C2CC2)c2c(F)c(N3CCC(N=Cc4ccc(Cl)cc4)C3)c(F)cc2c1=O (stereo not given) | 232 to 237 °C
Cn1nc(C(F)(F)F)c(C(=O)Nc2cccc3c2CCC3(C)C)c1Cl | 120 °C
COc1cc(NC(=O)C(C#N)=CNc2ccc(Br)c(OC)c2)c(Cl)cc1Cl | > 250 °C
COC(=O)CCC(=O)c1ccc(O)c(Cl)c1 | 85 to 89 °C
Cc1nc2cc(Cn3ccnc3)ccc2n1Cc1cccnc1 | 174 °C
CCC(=O)Nc1cnn2cnc3ccccc3c12 | 202 to 204 °C
O=C(O)CCc1cn(Cc2ccc(OCc3ccc4ccccc4n3)cc2)nc1-c1ccccc1 | 147 to 148 °C
COc1cccc2c(Nc3ccccc3)nc(Cl)nc12 | 245 to 246 °C
CCOC(=O)C1=C(NC(=O)Nc2cc(C(=O)OC(C)C)c(Cl)cc2F)CCC1 | 146 to 149 °C
CCOC(=O)CCCSc1ncnc2c(O)n(C)nc12 | 160 to 161 °C
N#Cc1coc2cc(O)ccc2c1=O | 292 to 293 °C

----------
Items are presented alongside their recorded melting point.

molecule | melting point
O=C(C=Cc1ccc(Cl)c([N+](=O)[O-])c1)N1CCc2c([nH]c3ccccc23)C1c1ccc2c(c1)OCO2 (stereo not given) | 240 °C
O=C1Nc2ccccc2C12COc1cc(F)c(F)cc12 (stereo not given) | > 200 °C
NC(=O)c1nn(C2OC(CO)C(O)C2O)nc1C(N)=O (stereo not given) | 210 to 212 °C
CN1C(=O)C(c2c[nH]c3ncccc23)=C(c2cn(C(=O)OC(C)(C)C)c3ccccc23)C1=O | 180 °C
COc1ccc(COC2C=C(C)C(=NN(C)C)CC(C)(C)C2OC)cc1 (stereo not given) | 71 to 72 °C
Cc1n[nH]c2cc(-c3nn(C(C)c4oc5cccc(F)c5c(=O)c4-c4cccc(F)c4)c4ncnc(N)c34)ccc12 (stereo not given) | 156 to 159 °C
O=C1CCC(c2ccc(Cl)cc2)N1c1ccccc1 (stereo not given) | 82.5 to 83.5 °C
Cc1cc(C(O)(C(F)(F)F)C(F)(F)F)ccc1O | 89.5 to 90.5 °C
CCCCCS(=O)(=O)NC/C=C/c1ccc(OCCOC)cc1Oc1ncc(C(F)(F)F)cc1Cl | 106 °C
Cn1c(Br)nc2c([N+](=O)[O-])cc(Br)cc21 | 235 to 236 °C
COc1ccc(N(Cc2cnn(Cc3ccc(C(F)(F)F)cc3)c2)C(=O)C2CCCc3c(O)cccc32)cn1 (stereo not given) | 199 to 200 °C
COC(=S)OC(C(=O)O)c1ccccc1 (stereo not given) | 86 to 87 °C
COc1ccc2c(c1O)CCN(C=O)[C@@H]2c1cc(OC)c(OC)c(OC)c1 | 190 to 192 °C
CC(CC(C)C)=Nc1cc2c(cc1F)OCC(=O)N2 | 113 to 115 °C
NC(=O)c1sc2nccc(OC3CCCCCC3)c2c1N | 179 to 180 °C
COc1cccc(OC)c1CN1CC2CCCN2c2ccccc21 (stereo not given) | 124 to 125 °C
CCCCNC(=O)N1CC(Oc2cccc(C(F)(F)F)c2)C1 | 108 to 109 °C
O=c1c2ccccc2[nH]c(=S)n1CCCO | 174 to 176 °C
CC(C)N1Cc2cc(C(=O)O)ccc2N(CCN2CC=C(c3c[nH]c4cc(F)ccc34)CC2)S1(=O)=O | 193 to 194 °C
CS(=O)(=O)c1ccc(-c2[nH]c(SCc3ccc4ccccc4n3)nc2-c2ccc(F)cc2)cc1 | 179 to 182 °C
